- TARGET SYSTEM: Prothrombin (Homo sapiens)
- ASSAY NOTES: Inhibitory activity against the human alpha-thrombin
Reported K ass values follow for various compounds
QUANTITY MEASURED: K ass

> print(dat)
                       smiles.representation  quantity.measured     data.value
 1  N[C@H](CC1CCCCC1)C(=O)N1CCC[C@H]1C(=O)NCCCCc1c[nH]cn1              K ass  1.3e+06 l M-1
 2  CN[C@H](Cc1ccccc1)C(=O)N1CCC[C@H]1C(=O)N[C@H](C=O)CCCNC(=N)N              K ass  6.7e+08 l M-1
 3  N[C@H](CC1CCCCC1)C(=O)N1CCC[C@H]1C(=O)NCCc1c[nH]cn1              K ass  4.4e+06 l M-1
 4  N[C@H](CC1CCCCC1)C(=O)N1[C@H](C(=O)NCCCc2c[nH]cn2)C[C@@H]2CCCC[C@@H]21              K ass  3.4e+07 l M-1
 5  O=C(O)CN[C@H](CC1CCCCC1)C(=O)N1CCC[C@H]1C(=O)NC/C=C/c1c[nH]cn1              K ass  8.4e+07 l M-1
 6  Cc1[nH]cnc1CCCNC(=O)[C@@H]1CCCN1C(=O)[C@H](N)CC1CCCCC1              K ass  2.3e+07 l M-1
 7  N[C@H](CC1CCCCC1)C(=O)N1[C@H](C(=O)NC/C=C/c2c[nH]cn2)C[C@@H]2CCCC[C@@H]21              K ass    7e+06 l M-1
 8  N[C@H](CC1CCCCC1)C(=O)N1CCC[C@H]1C(=O)NC/C=C/c1c[nH]cn1              K ass  1.6e+07 l M-1
 9  O=C(O)CN[C@H](CC1CCCCC1)C(=O)N1CCC[C@H]1C(=O)NCCCc1c[nH]cn1              K ass    1e+08 l M-1
10  N[C@H](CC1CCCCC1)C(=O)N1CCC[C@H]1C(=O)NCCCc1c[nH]cn1              K ass    2e+07 l M-1
11  NC(N)=NCCCCNC(=O)[C@@H]1CCCN1C(=O)[C@H](N)CC1CCCCC1              K ass    3e+07 l M-1

* * *

- TARGET SYSTEM: UniProtKB P00749
- ASSAY NOTES: Inhibitory activity against the human urokinase
Reported K ass values follow for various compounds
QUANTITY MEASURED: K ass

> print(dat)
                      smiles.representation     data.value
1  O=C(O)CN[C@H](CC1CCCCC1)C(=O)N1CCC[C@H]1C(=O)NCCCc1c[nH]cn1  < 10000 l M-1
2  N[C@H](CC1CCCCC1)C(=O)N1[C@H](C(=O)NCCCc2c[nH]cn2)C[C@@H]2CCCC[C@@H]21  < 10000 l M-1
3  CN[C@H](Cc1ccccc1)C(=O)N1CCC[C@H]1C(=O)N[C@H](C=O)CCCNC(=N)N    40000 l M-1
4  N[C@H](CC1CCCCC1)C(=O)N1CCC[C@H]1C(=O)NCCCc1c[nH]cn1  < 10000 l M-1
5  NC(N)=NCCCCNC(=O)[C@@H]1CCCN1C(=O)[C@H](N)CC1CCCCC1  < 10000 l M-1

* * *

- ASSAY NOTES: Anticoagulant activity for the compound by determining the concentration required to double the activated partial thromboplastin time.
- Assay type: functional
Reported Concentration values follow for various compounds
QUANTITY MEASURED: Concentration

> print(dat)
                      smiles.representation  data.value
1  NC(N)=NCCCCNC(=O)[C@@H]1CCCN1C(=O)[C@H](N)CC1CCCCC1   490 ng/mL
2  N[C@H](CC1CCCCC1)C(=O)N1CCC[C@H]1C(=O)NCCCc1c[nH]cn1   660 ng/mL
3  N[C@H](CC1CCCCC1)C(=O)N1[C@H](C(=O)NCCCc2c[nH]cn2)C[C@@H]2CCCC[C@@H]21   470 ng/mL
4  O=C(O)CN[C@H](CC1CCCCC1)C(=O)N1CCC[C@H]1C(=O)NCCCc1c[nH]cn1   170 ng/mL
5  CN[C@H](Cc1ccccc1)C(=O)N1CCC[C@H]1C(=O)N[C@H](C=O)CCCNC(=N)N   930 ng/mL

* * *

Reported K ass values follow for various compounds
- TARGET SYSTEM: Serine protease 1 (Homo sapiens)
- ASSAY NOTES: Inhibitory activity against the human trypsin
QUANTITY MEASURED: K ass

> print(dat)
                      smiles.representation  quantity.measured    data.value
1  NC(N)=NCCCCNC(=O)[C@@H]1CCCN1C(=O)[C@H](N)CC1CCCCC1              K ass    260000 M⁻¹
2  O=C(O)CN[C@H](CC1CCCCC1)C(=O)N1CCC[C@H]1C(=O)NCCCc1c[nH]cn1              K ass  290000 l M-1
3  N[C@H](CC1CCCCC1)C(=O)N1[C@H](C(=O)NCCCc2c[nH]cn2)C[C@@H]2CCCC[C@@H]21              K ass   40000 l M-1
4  N[C@H](CC1CCCCC1)C(=O)N1CCC[C@H]1C(=O)NCCCc1c[nH]cn1              K ass   10000 l M-1
5  CN[C@H](Cc1ccccc1)C(=O)N1CCC[C@H]1C(=O)N[C@H](C=O)CCCNC(=N)N              K ass      91 l M-1
